target: human ether-à-go-go-related gene (hERG) potassium channel (human); test: primary screen, population patch clamp on CHO cells stably expressing hERG; higher = less effect of the substance;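 note: peak tail current of the secondary pulse compared with the same well before compound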
Sequence (Q12809 whole entry, looked up): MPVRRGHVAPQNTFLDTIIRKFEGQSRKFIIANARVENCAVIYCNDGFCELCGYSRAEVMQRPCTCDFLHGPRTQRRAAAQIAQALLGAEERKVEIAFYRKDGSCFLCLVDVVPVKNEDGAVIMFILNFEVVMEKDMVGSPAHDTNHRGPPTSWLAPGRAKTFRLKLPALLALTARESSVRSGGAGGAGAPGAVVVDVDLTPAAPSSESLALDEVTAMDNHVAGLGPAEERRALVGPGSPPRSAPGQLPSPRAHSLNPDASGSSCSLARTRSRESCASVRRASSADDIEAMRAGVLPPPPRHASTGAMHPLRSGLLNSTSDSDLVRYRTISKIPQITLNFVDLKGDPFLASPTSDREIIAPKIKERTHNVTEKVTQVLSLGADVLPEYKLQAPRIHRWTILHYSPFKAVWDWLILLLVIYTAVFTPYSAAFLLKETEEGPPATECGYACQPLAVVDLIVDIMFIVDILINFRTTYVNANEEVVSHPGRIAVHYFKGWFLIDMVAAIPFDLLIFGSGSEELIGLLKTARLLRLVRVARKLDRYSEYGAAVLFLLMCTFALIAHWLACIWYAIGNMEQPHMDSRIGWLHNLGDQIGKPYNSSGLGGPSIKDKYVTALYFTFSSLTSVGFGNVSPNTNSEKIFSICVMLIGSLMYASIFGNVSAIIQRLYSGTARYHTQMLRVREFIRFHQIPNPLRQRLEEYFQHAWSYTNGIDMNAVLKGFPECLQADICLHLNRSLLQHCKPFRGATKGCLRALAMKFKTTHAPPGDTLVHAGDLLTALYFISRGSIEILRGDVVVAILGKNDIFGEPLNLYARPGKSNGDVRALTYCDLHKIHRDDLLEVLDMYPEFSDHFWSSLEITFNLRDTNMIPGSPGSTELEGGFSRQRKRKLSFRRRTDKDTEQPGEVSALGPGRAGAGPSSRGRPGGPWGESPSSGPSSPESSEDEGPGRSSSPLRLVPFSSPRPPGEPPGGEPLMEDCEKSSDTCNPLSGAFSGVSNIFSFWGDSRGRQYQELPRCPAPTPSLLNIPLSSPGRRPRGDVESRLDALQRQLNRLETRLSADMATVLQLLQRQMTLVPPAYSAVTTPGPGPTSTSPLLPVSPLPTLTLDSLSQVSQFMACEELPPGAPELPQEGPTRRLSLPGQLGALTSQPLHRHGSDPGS
Among all 310,000 compounds or so, about 14,000 (4.5%) showed an effect of 50% or more. The effect is printed as a negative number. The full list was thinned out, with strong results kept by preference.
Rule: yes for hERG current change (%, negative = inhibition) at 10uM not less than -30%, no for anything less.

CCC(C)NCCOCCOc1ccc(Cl)c(C)c1C.O=C(O)C(=O)O (stereo not drawn) ... no

Switching to the query record.
I'd appreciate it if you could say whether `CCN(CC)S(=O)(=O)c1ccc(-c2nnc(SCc3nnc(-c4ccc(C)cc4)o3)o2)cc1` has hERG current change (%, negative = inhibition) at 10uM at least equal to -30%. yes
